tested on: Escherichia coli TOP10; assay: shrunken log2 fold change of peptide-encoding DNA abundance (4.5 h post-induction vs induction); higher = less antimicrobial activity (less host growth inhibition); settings: time post-induction: 4.5 h; library: site-saturation at positions 5, 18, 19, 20
Endpoint Label: shrunken log2 fold change
Kindly provide the number alone.

A selection of reference data follows.
>  <Macromolecule Sequence>
RRIRSRPPRLPRPRPRPHVFPRP

>  <Assay Target>
Escherichia coli TOP10

>  <shrunken log2 fold change>
2.95

$$$$
>  <Macromolecule Sequence>
RRIRGRPPRLPRPRPRPLNGPRP

>  <Assay Target>
Escherichia coli TOP10

>  <shrunken log2 fold change>
0.11

$$$$
>  <Macromolecule Sequence>
RRIRYRPPRLPRPRPRPHKDPRP

>  <Assay Target>
Escherichia coli TOP10

>  <shrunken log2 fold change>
-0.428

$$$$
>  <Macromolecule Sequence>
RRIRTRPPRLPRPRPRPHPYPRP

>  <Assay Target>
Escherichia coli TOP10

>  <shrunken log2 fold change>
0.0733

$$$$
>  <Macromolecule Sequence>
RRIRPRPPRLPRPRPRPAFKPRP

>  <Assay Target>
Escherichia coli TOP10

>  <shrunken log2 fold change>
0.192

$$$$
>  <Macromolecule Sequence>
RRIRTRPPRLPRPRPRPWTTPRP

>  <Assay Target>
Escherichia coli TOP10

>  <shrunken log2 fold change>
0.176

$$$$

Query: Write down the reported shrunken log2 fold change of `RRIRTRPPRLPRPRPRPCQTPRP` , test system: Escherichia coli TOP10.
Response: -0.0283

----------
Overview of recorded shrunken log2 fold change for various sequences
tested on: Escherichia coli TOP10; assay: shrunken log2 fold change of peptide-encoding DNA abundance (4.5 h post-induction vs induction); higher = less antimicrobial activity (less host growth inhibition); settings: time post-induction: 4.5 h; library: site-saturation at positions 5, 18, 19, 20
Kindly provide the number alone.

A selection of reference data follows.
>  <Macromolecule Sequence>
RRIRTRPPRLPRPRPRPDNLPRP

>  <shrunken log2 fold change>
-0.479

$$$$
>  <Macromolecule Sequence>
RRIRVRPPRLPRPRPRPASHPRP

>  <shrunken log2 fold change>
0.0857

$$$$
>  <Macromolecule Sequence>
RRIRLRPPRLPRPRPRPHQYPRP

>  <shrunken log2 fold change>
-0.297

$$$$

Query: Write down the reported shrunken log2 fold change of `RRIRYRPPRLPRPRPRPRGWPRP` , test system: Escherichia coli TOP10.
Response: 0.575

Query: Write down the reported shrunken log2 fold change of `RRIRKRPPRLPRPRPRPEFGPRP` , test system: Escherichia coli TOP10.
Response: 0.0185

----------
system: Escherichia coli TOP10; experiment: shrunken log2 fold change of peptide-encoding DNA abundance (4.5 h post-induction vs induction); higher = less antimicrobial activity (less host growth inhibition); conditions: time post-induction: 4.5 h; library: site-saturation at positions 5, 18, 19, 20
Overview of recorded shrunken log2 fold change for various sequences
Kindly provide the number alone.

A selection of reference data follows.
>  <Macromolecule Sequence>
RRIRCRPPRLPRPRPRPIQMPRP

>  <Assay Target>
Escherichia coli TOP10

>  <shrunken log2 fold change>
-0.0491

$$$$
>  <Macromolecule Sequence>
RRIRSRPPRLPRPRPRPSMVPRP

>  <Assay Target>
Escherichia coli TOP10

>  <shrunken log2 fold change>
-0.368

$$$$
>  <Macromolecule Sequence>
RRIRRRPPRLPRPRPRPTVLPRP

>  <Assay Target>
Escherichia coli TOP10

>  <shrunken log2 fold change>
-0.227

$$$$
>  <Macromolecule Sequence>
RRIRERPPRLPRPRPRPKKMPRP

>  <Assay Target>
Escherichia coli TOP10

>  <shrunken log2 fold change>
-0.478

$$$$
>  <Macromolecule Sequence>
RRIRPRPPRLPRPRPRPPCMPRP

>  <Assay Target>
Escherichia coli TOP10

>  <shrunken log2 fold change>
-0.165

$$$$

Query: Write down the reported shrunken log2 fold change of `RRIRWRPPRLPRPRPRPPMHPRP` , test system: Escherichia coli TOP10.
Response: 0.429

Query: Write down the reported shrunken log2 fold change of `RRIRWRPPRLPRPRPRPKDHPRP` , test system: Escherichia coli TOP10.
Response: 0.182

Query: Write down the reported shrunken log2 fold change of `RRIRFRPPRLPRPRPRPYQWPRP` , test system: Escherichia coli TOP10.
Response: -0.655

Query: Write down the reported shrunken log2 fold change of `RRIRMRPPRLPRPRPRPGREPRP` , test system: Escherichia coli TOP10.
Response: 1.02

Query: Write down the reported shrunken log2 fold change of `RRIRERPPRLPRPRPRPTVIPRP` , test system: Escherichia coli TOP10.
Response: -0.0209

Query: Write down the reported shrunken log2 fold change of `RRIRLRPPRLPRPRPRPDPQPRP` , test system: Escherichia coli TOP10.
Response: -0.00554

Query: Write down the reported shrunken log2 fold change of `RRIRLRPPRLPRPRPRPRKFPRP` , test system: Escherichia coli TOP10.
Response: -0.0381

Query: Write down the reported shrunken log2 fold change of `RRIRARPPRLPRPRPRPDIPPRP` , test system: Escherichia coli TOP10.
Response: -0.192

Query: Write down the reported shrunken log2 fold change of `RRIRFRPPRLPRPRPRPLPTPRP` , test system: Escherichia coli TOP10.
Response: 0.336

Query: Write down the reported shrunken log2 fold change of `RRIRVRPPRLPRPRPRPLAYPRP` , test system: Escherichia coli TOP10.
Response: 0.0656

----------
tested on: Escherichia coli TOP10; test: shrunken log2 fold change of peptide-encoding DNA abundance (4.5 h post-induction vs induction); higher = less antimicrobial activity (less host growth inhibition); conditions: time post-induction: 4.5 h; library: site-saturation at positions 5, 18, 19, 20
Endpoint Label: shrunken log2 fold change
Kindly provide the number alone.

A selection of reference data follows.
>  <Macromolecule Sequence>
RRIRERPPRLPRPRPRPVWPPRP

>  <shrunken log2 fold change>
0.0958

$$$$
>  <Macromolecule Sequence>
RRIRGRPPRLPRPRPRPMDFPRP

>  <shrunken log2 fold change>
0.213

$$$$
>  <Macromolecule Sequence>
RRIRIRPPRLPRPRPRPPRIPRP

>  <shrunken log2 fold change>
0.333

$$$$
>  <Macromolecule Sequence>
RRIRQRPPRLPRPRPRPDSFPRP

>  <shrunken log2 fold change>
0.0109

$$$$
>  <Macromolecule Sequence>
RRIRERPPRLPRPRPRPSHCPRP

>  <shrunken log2 fold change>
0.0392

$$$$

Query: Consider the sequence shown here: `RRIRYRPPRLPRPRPRPMADPRP` What is its recorded shrunken log2 fold change?
Response: -0.0453

Query: Consider the sequence shown here: `RRIRDRPPRLPRPRPRPMKAPRP` What is its recorded shrunken log2 fold change?
Response: 0.0349

Query: Consider the sequence shown here: `RRIRKRPPRLPRPRPRPLKWPRP` What is its recorded shrunken log2 fold change?
Response: 0.18

----------
system: Escherichia coli TOP10; test: shrunken log2 fold change of peptide-encoding DNA abundance (4.5 h post-induction vs induction); higher = less antimicrobial activity (less host growth inhibition); details: time post-induction: 4.5 h; library: site-saturation at positions 5, 18, 19, 20
Overview of recorded shrunken log2 fold change for various sequences
Kindly provide the number alone.

A selection of reference data follows.
>  <Macromolecule Sequence>
RRIRQRPPRLPRPRPRPHMNPRP

>  <Assay Target>
Escherichia coli TOP10

>  <Readout Value>
-0.76

$$$$
>  <Macromolecule Sequence>
RRIRCRPPRLPRPRPRPIRNPRP

>  <Assay Target>
Escherichia coli TOP10

>  <Readout Value>
-0.182

$$$$
>  <Macromolecule Sequence>
RRIRCRPPRLPRPRPRPSQTPRP

>  <Assay Target>
Escherichia coli TOP10

>  <Readout Value>
-0.338

$$$$
>  <Macromolecule Sequence>
RRIRARPPRLPRPRPRPYRTPRP

>  <Assay Target>
Escherichia coli TOP10

>  <Readout Value>
-0.0383

$$$$
>  <Macromolecule Sequence>
RRIRQRPPRLPRPRPRPVWRPRP

>  <Assay Target>
Escherichia coli TOP10

>  <Readout Value>
0.205

$$$$
>  <Macromolecule Sequence>
RRIRCRPPRLPRPRPRPEYTPRP

>  <Assay Target>
Escherichia coli TOP10

>  <Readout Value>
-0.139

$$$$

Query: Consider the sequence shown here: `RRIRNRPPRLPRPRPRPQWYPRP` What is its recorded shrunken log2 fold change?
Response: -0.209

Query: Consider the sequence shown here: `RRIRIRPPRLPRPRPRPSCGPRP` What is its recorded shrunken log2 fold change?
Response: -0.174

----------
system: Escherichia coli TOP10; test: shrunken log2 fold change of peptide-encoding DNA abundance (4.5 h post-induction vs induction); higher = less antimicrobial activity (less host growth inhibition); details: time post-induction: 4.5 h; library: site-saturation at positions 5, 18, 19, 20
Overview of recorded shrunken log2 fold change for various sequences
Kindly provide the number alone.

A selection of reference data follows.
>  <Macromolecule Sequence>
RRIRKRPPRLPRPRPRPYTWPRP

>  <Readout Value>
-0.231

$$$$
>  <Macromolecule Sequence>
RRIRPRPPRLPRPRPRPHNEPRP

>  <Readout Value>
-0.397

$$$$
>  <Macromolecule Sequence>
RRIRRRPPRLPRPRPRPWYDPRP

>  <Readout Value>
-0.25

$$$$
>  <Macromolecule Sequence>
RRIRHRPPRLPRPRPRPMPAPRP

>  <Readout Value>
0.337

$$$$
>  <Macromolecule Sequence>
RRIRWRPPRLPRPRPRPITSPRP

>  <Readout Value>
-0.122

$$$$

Query: Write down the reported shrunken log2 fold change of `RRIRFRPPRLPRPRPRPLDRPRP` , test system: Escherichia coli TOP10.
Response: 0.163

Query: Write down the reported shrunken log2 fold change of `RRIRGRPPRLPRPRPRPKTAPRP` , test system: Escherichia coli TOP10.
Response: 0.808

Query: Write down the reported shrunken log2 fold change of `RRIRYRPPRLPRPRPRPMCEPRP` , test system: Escherichia coli TOP10.
Response: -0.283

Query: Write down the reported shrunken log2 fold change of `RRIRSRPPRLPRPRPRPDCSPRP` , test system: Escherichia coli TOP10.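 Further: peptides expressed intracellularly from a pBAD plasmid library in pooled LB shake-flask culture, induced with 0.3% L-arabinose, DNA abundance read by NGS, three biological replicates, DESeq2 with apeglm shrinkage.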
Response: 0.0664
